System: PC-3 prostate
Assay Info: NCI tumour cell line growth inhibition, 48 h; in the data active = GI50 below about 0.43 µM; inactive = the rest
Labels: YES for active, NO for inactive

[
  {
    "Compound": "O=C(Nc1ccc(OS(=O)(=O)c2ccccc2)cc1)C12CC3CC(CC(C3)C1)C2",
    "Discrete Label": "NO"
  },
  {
    "Compound": "C=C(C=O)C1CCC2(C(=O)O)CCC3(C)C(CCC4C5(C)CCC(O)C(C)(C)C5CCC43C)C12 (centres undefined)",
    "Discrete Label": "NO"
  },
  {
    "Compound": "CNCCNc1c2c(c(NCCNC)c3c(CN(C)C)c[nH]c13)C(=O)c1ccccc1C2=O",
    "Discrete Label": "NO"
  },
  {
    "Compound": "C=C(C)[C@@]12OC3(/C=C/C=C/CCCCC)O[C@@H]1[C@@H]1[C@@H]4O[C@]4(CO)[C@@H](O)[C@]4(O)C(=O)C(C)=C[C@H]4[C@@]1(O3)[C@H](C)[C@H]2OC(=O)c1ccccc1",
    "Discrete Label": "NO"
  },
  {
    "Compound": "COc1ccc2c(c1)C(C)Cc1c(Cl)ncnc1N2C (centres undefined)",
    "Discrete Label": "YES"
  },
  {
    "Compound": "COc1ccc(C(=O)c2cc(OC)c(C)c(OC)c2)cc1OC(=O)CCl",
    "Discrete Label": "YES"
  },
  {
    "Compound": "CC(C)c1ccc(Nc2ccc3c(OCCCN4CCN(C)CC4)cccc3n2)cc1",
    "Discrete Label": "NO"
  },
  {
    "Compound": "C#Cc1cccc(Nc2ncnc3cc(OC)c(OCCCCCCC(=O)NO)cc23)c1",
    "Discrete Label": "YES"
  },
  {
    "Compound": "CNCCCn1cc(C2=C(c3cn(C)c4ccccc34)C(=O)NC2=O)c2ccccc21",
    "Discrete Label": "NO"
  }
]

Entry source: PubChem BioAssay (NCI)
